- tgt: Cytochrome P450 2C9 (Homo sapiens)
- Sequence (P11712 whole entry): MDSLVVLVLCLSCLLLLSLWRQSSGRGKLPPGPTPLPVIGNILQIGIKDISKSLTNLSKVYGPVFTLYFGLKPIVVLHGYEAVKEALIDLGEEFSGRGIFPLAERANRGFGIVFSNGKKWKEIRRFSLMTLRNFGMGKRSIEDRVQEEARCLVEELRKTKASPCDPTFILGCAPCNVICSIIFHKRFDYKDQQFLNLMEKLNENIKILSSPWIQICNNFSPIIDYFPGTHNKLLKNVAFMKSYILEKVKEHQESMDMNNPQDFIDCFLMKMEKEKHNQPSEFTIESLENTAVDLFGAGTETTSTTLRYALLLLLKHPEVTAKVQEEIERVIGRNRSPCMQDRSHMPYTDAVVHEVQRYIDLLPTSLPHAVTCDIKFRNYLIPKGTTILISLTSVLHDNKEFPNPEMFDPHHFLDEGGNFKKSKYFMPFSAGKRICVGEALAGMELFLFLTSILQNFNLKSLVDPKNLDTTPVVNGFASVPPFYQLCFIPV
Documented AC50 across a set of compounds

Example cases with answers are listed next.
| compound | AC50 |
| --- | --- |
| CN(CCc1ccccn1)Cc1ccc(Cl)cc1Cl | 6.31 µM (inconclusive) |
| COc1cccc(-c2nc(CS(=O)(=O)CC(=O)NCCCOC(C)C)c(C)o2)c1 | 11.2 µM (inconclusive) |
| Cn1c(-c2ccc3c(c2)OCO3)cnc1NCc1ccccc1 | 31.6 µM (inconclusive) |
| CCc1ccccc1NC(=O)C1C(c2ccccc2)C1(Cl)Cl (stereo not given) | 20 µM (inconclusive) |
| Oc1ccccc1/N=C/c1c[nH]nc1O | 8.91 µM (inconclusive) |
| CCCCCCCCCCCCCC(=O)O[C@H]1[C@@H](C)[C@@]2(O)[C@@H](C=C(CO)C[C@]3(O)C(=O)C(C)=C[C@@H]23)C2C(C)(C)[C@]21OC(C)=O (stereo not given in full) | 10 µM (inconclusive) |

What measured AC50 goes with O=C(c1ccco1)N1CCC[C@@]2(CCN(c3ccncc3)C2)C1 ? 15.8 µM (inconclusive)

Okay, and CC(C)COP(=O)(c1ccc(N(C)C)cc1)C(O)c1ccccc1F (stereo not given) ? 12.6 µM (inconclusive)

Okay, and CCOc1ccc(C(=O)Nc2ccc(NC(=O)c3ccco3)c(Cl)c2)cc1Br ? 0.562 µM (inconclusive)

Okay, and C=CCn1c(SCC(=O)NC2CCCCC2)nnc1C1CCCCC1 ? 28.2 µM (inconclusive)
